# Tested on: ragweed (common ragweed, Ambrosia elatior)
# Experimental Details: Test A preemergence
# Format: in vivo
# Measurement Setup: Ambrosia artemisiifolia, pre-emergence, 240 h, 500 g ai/ha, preemergence; visual injury rating about 10 d after treatment, 0 to 100 scale (0 no effect, 100 complete control); read-out: Ragweed plant response rating
# Lookup of reported pest or weed control at 500 g/ha keyed by entry
Unit % implied. Number only.

- Cc1ccc([C@H]2CNC(=S)[C@@H]2C(=O)Nc2ccccc2F)cc1 (racemic): 0
- CN1C[C@H](c2csc(C(F)(F)F)c2)[C@@H](C(=O)Nc2cccc(F)c2F)C1=O: 70
- O=C(Nc1ccccc1C(F)(F)F)[C@H]1C(=S)NC[C@@H]1c1ccc(C(F)(F)F)cc1 (racemic): 40
- CN1CC[C@H](c2ccccc2)[C@@H](C(=O)Nc2ccccc2F)C1=O: 0

Alright, here's another compound for you.
Dear colleague, I am looking for the recorded pest or weed control at 500 g/ha of the following compound: CC(C)Oc1ccc([C@H]2CN(C)C(=O)[C@@H]2C(=O)Nc2cccc(F)c2F)cc1
0

Every entry's value here was drawn from patent US12077503B2.
